Reference for the values: ChEMBL document CHEMBL1201862

targetUnderTest: Heat shock factor protein 1 (Mus musculus, UniProt P38532)
Sequence (P38532 whole entry): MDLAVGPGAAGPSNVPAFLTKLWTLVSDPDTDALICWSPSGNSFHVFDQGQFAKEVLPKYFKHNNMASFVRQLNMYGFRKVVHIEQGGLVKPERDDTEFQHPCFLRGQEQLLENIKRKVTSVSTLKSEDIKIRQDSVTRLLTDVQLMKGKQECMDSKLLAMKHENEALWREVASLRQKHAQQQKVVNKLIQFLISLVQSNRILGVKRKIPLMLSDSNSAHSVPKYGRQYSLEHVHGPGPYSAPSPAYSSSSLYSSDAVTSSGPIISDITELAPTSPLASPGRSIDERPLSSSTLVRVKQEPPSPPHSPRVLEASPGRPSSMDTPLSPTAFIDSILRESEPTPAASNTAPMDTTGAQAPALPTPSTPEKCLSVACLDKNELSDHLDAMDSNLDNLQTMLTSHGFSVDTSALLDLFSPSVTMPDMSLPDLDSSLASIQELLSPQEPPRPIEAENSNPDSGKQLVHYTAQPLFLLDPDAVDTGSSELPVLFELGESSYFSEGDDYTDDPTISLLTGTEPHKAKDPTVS
experimentNotes: HSF1 potentiators in luciferase reporter cells, confirmation, cell-based, NIH3T3, luminescence, dose retest (AID 435004);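 also: stress induced by proteasome inhibitor MG132 added 30 min after compound; luciferase reporter driven by HSF1 response element in NIH3T3 cells; actives raise luminescence as potentiators of the MG132 stress response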
Format: functional
The source made the active and inactive calls.
measuredProperty: EC50

# compound, EC50
rows = [
    ("Cn1ncc(Br)c1C(=O)N1CCOCC1", "> 260 µM (inactive)"),
    ("COc1ccc(CN2CC(C(=O)NCCCN3CCOCC3)CC2=O)cc1 (stereo not given)", "> 260 µM (inactive)"),
    ("COc1ccc(CNS(=O)(=O)c2cc(CN3C(=O)c4cccnc4C3=O)ccc2OC)cc1", "> 260 µM (inactive)"),
    ("Cc1ccc(NC(=O)COC(=O)/C=C/c2ccc(Br)o2)cc1S(=O)(=O)N(C)C", "> 260 µM (inactive)"),
]

With those in mind, consider the next compound.
Give recorded EC50. Cc1cccc2cc(CN(Cc3ccco3)C(c3nnnn3CCc3ccccc3)C(C)C)c(O)nc12 (stereo not given)
70.3 µM (active)

* * *

Recorded CC50 by entry
experimentNotes: HEp-2 cell cytotoxicity, dose response, cytotoxicity control for RSV inhibitor project, HTS (AID 2410)
Type: functional
cond: human respiratory syncytial virus
The source made the active and inactive calls.

Worked cases, CC50 given:
# molecule, CC50
measured = [
    ("COc1ccc(CCNCC(O)Cn2c3ccccc3c3ccccc32)cc1OC (stereo unspecified)", "13.7 µM (active)"),
    ("Cn1c(C(=O)NCc2ccccc2)cc2oc3ccccc3c21", "28.9 µM (active)"),
    ("CCOC(=O)C(O)(c1ccc(NC(=O)c2ccc(Cl)c(Cl)c2)cc1)C(F)(F)F (stereo unspecified)", "20.9 µM (active)"),
]

For the molecule `N#Cc1c(F)cccc1N1CCOCC1` , give its measured CC50 value.
23.6 µM (active)

Tell me its CC50 given `COC(=O)c1c(C)nc(O)nc1SCc1cccc2ccccc12` as the entry.
> 50 µM (active)

Fill in CC50 for record `COc1ccc(Nc2nc(-c3ccccc3)nc3ccccc23)cc1`
13.1 µM (active)

* * *

Form field: EC50 (one value per entry).
targetUnderTest: Heat shock factor protein 1 (Mus musculus, UniProt P38532)
Sequence (P38532 whole entry): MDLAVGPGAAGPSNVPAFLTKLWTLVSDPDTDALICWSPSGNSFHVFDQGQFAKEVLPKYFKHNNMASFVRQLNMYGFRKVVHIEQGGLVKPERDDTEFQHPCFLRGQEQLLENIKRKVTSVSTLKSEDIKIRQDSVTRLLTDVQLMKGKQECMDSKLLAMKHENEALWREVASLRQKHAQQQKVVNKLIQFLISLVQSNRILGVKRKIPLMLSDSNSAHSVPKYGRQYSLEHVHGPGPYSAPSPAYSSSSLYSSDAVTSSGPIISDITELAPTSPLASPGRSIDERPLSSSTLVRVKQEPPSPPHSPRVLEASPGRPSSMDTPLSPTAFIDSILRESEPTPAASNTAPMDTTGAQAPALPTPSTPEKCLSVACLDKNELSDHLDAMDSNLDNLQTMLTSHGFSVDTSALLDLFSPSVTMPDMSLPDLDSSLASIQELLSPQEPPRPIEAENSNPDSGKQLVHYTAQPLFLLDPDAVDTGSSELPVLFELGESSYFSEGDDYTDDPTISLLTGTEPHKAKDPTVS
experimentNotes: inhibition of MG132-induced HSE-luciferase signal, confirmation, cell-based, NIH3T3, luminescence, dose retest (AID 2382);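 also: NIH3T3 fibroblasts with HSF1-driven luciferase reporter stressed by proteasome inhibitor MG132; luminescence from HSF1-driven luciferase expression after 8 hours of MG132 stress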
Format: functional

State, in one line, measured EC50 of `Cc1ccc(C)c(N2CCN(C(=O)c3cc(S(=O)(=O)N4CCCC4)cn3C)CC2)c1`
> 195 µM (not active)

Give the reported value of EC50 for this record: `Cc1cc(NC(=O)CSc2nnc(C)n2C)no1`
> 195 µM (not active)

Give EC50 for O=C(NCc1ccccc1)C1CCCN(S(=O)(=O)c2cccc3nsnc23)C1 (stereo not given)
> 195 µM (not active)
